Provide the recorded fold activation, T-cell proliferation, plate-bound Ab 10.6 nM, donor 4 for the entries that follow.
System: T1, human GITR (amino acids M1-V241, NCBI Accession #NP_004186.1) expressed on cells (human, UniProt Q9Y5U5 26-241)
T1 sequence: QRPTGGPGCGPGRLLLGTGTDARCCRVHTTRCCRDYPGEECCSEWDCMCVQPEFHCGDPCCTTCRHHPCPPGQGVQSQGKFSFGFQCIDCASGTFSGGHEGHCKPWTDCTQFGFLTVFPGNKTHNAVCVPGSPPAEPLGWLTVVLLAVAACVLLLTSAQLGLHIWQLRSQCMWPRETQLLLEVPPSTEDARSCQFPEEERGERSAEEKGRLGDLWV
Measurement Description: cell-based or functional assay
Give bare numbers, in fold.

[
  {
    "Binder": "H4H14469P (antibody, human IgG4, V domains shown, human IgG4 (H4H)) VH: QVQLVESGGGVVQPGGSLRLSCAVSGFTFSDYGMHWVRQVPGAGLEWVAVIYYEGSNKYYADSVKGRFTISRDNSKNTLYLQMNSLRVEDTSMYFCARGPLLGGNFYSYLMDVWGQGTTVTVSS VL: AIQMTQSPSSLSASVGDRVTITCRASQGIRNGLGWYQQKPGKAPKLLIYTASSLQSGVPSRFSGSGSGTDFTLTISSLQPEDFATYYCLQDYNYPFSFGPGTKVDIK",
    "Unit Tag": "fold",
    "Test Result": 15
  }
]

I'm hoping you can list fold activation, T-cell proliferation, plate-bound Ab 10.6 nM, donor 4 for every binder here, please.
1. H4H14475P (antibody, human IgG4, V domains shown, human IgG4 (H4H)) VH: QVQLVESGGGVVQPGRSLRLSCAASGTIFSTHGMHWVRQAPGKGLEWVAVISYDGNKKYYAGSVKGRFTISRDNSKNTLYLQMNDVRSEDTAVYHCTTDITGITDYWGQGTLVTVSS VL: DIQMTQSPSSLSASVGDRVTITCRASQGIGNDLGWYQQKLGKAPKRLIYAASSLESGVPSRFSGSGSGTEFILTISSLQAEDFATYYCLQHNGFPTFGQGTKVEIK
2. H4H14525P (antibody, human IgG4, V domains shown, human IgG4 (H4H)) VH: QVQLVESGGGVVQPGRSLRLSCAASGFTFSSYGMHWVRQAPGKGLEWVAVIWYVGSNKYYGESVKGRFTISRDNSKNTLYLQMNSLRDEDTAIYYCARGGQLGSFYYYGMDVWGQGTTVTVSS VL: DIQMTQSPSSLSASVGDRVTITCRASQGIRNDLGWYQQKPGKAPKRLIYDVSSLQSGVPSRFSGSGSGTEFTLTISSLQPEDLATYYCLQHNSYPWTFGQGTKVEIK
3. H4H14516P (antibody, human IgG4, V domains shown, human IgG4 (H4H)) VH: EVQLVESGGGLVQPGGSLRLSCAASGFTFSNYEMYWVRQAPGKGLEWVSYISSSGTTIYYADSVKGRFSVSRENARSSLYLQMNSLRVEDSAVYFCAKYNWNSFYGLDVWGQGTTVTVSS VL: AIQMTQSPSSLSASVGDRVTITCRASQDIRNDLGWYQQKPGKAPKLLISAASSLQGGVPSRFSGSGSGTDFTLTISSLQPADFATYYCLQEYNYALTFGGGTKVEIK

RESULT:
2
2
12
